Every entry's value here was drawn from patent US20110237640A1.

# Test System: pFA-PPARα-LBD in BHK21 cells (Homo sapiens)
# Construct: PPARα (aa 167 to 469)
# Sequence (Q07869 167-468 limits assumed): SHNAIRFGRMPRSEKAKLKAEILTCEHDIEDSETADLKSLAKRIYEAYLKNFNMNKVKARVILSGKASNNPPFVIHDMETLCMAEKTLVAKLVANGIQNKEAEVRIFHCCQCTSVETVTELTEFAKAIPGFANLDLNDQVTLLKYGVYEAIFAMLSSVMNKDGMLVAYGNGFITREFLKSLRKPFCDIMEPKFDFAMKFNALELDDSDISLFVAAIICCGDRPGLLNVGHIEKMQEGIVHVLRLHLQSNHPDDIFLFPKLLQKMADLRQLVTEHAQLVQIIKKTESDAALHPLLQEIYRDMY
# Assay Method Text: Luciferase transcriptional reporter gene assay (transactivation), PPARα
# Recorded Conditions: 24 hours with compound
Listing of recorded EC50 by entry.
Numbers only; they are read as nM.

{"columns": ["Query Smiles", "Unit", "Reported Result"],
 "data": [
  ["Cc1cc(OCc2cc(-c3ccc(OC(F)(F)F)cc3)nn2C)ccc1OC(C)(C)C(=O)O", "nM", 380]
]}

Next compound, EC50 to be filled in.
Q. Need EC50, item `Cc1cc(OCc2cc(-c3ccc(OC(F)(F)F)cc3)nn2CC(F)(F)F)ccc1OC(C)(C)C(=O)O`
A. 160

* * *

# Test System: GST-PPARγ-LBD fusion protein (Mus musculus, UniProt P37238)
# Construct: PPARγ (aa 174 to 476)
# Sequence (P37238 204-505): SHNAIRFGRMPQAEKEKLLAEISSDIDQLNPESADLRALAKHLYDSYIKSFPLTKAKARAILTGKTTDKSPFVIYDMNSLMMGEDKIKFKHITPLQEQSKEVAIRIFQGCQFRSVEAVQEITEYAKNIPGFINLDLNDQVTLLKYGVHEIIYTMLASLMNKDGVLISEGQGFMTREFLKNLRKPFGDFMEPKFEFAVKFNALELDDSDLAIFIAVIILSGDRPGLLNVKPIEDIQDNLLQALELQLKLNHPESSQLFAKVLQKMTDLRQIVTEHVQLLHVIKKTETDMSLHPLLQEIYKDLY
# Assay Method Text: PPARγ radioligand binding assay (SPA)
Property: IC50

{"columns": ["Query Smiles", "Reported Result"],
 "data": [
  ["Cc1cc(OCc2cc(-c3ccc(OC(F)(F)F)cc3)nn2CC(F)(F)F)ccc1OC(C)(C)C(=O)O", "≥ 10 µM"]
]}

Moving on to another molecule below.
Q. Please report the recorded IC50 for `Cc1cc(OCc2cc(-c3ccc(OC(F)(F)F)cc3)nn2C)ccc1OC(C)(C)C(=O)O` .
A. ≥ 10 µM
